Test system: P94_40
Experiment: qHTS profiling for inhibitors of Plasmodium falciparum proliferation (AID 504749); note: nearly all actives have a fitted effect of over 60% in size; note: potency is the fitted concentration of half-maximal effect
Conditions: P. falciparum in erythrocytes, SYBR Green DNA, 72 h; series mostly up to 28.7 µM
Inconclusive results are not listed. Active and inactive are the calls of the source. Calls come from the whole dose curve; as a rule, active = well fitted inhibition curve with a large enough effect; inconclusive = small, poorly fitted or top-dose-only effect; inactive = flat fitted curve, though single readings scatter.
Parameter measured: Potency

Take a look at these entries with their results.
Compound	Tested target	Parameter measured	Experimental value
CC1(C(=O)O)CCC2(C)CCC3(C)C(=CC(=O)C4C5(C)CCC(O)C(C)(C)C5CCC43C)C2C1 (centres undefined)	P94_40	Potency	inactive
CCC(C(=O)O)C1OC(C(C)C(O)C(C)C(=O)C(CC)C2OC3(C=CC(O)C4(CCC(C)(C5CCC(O)(CC)C(C)O5)O4)O3)C(C)CC2C)C(C)CC1C (centres undefined)	P94_40	Potency	70.8 nM (active)
CN1[C@H]2CC(OC(=O)[C@H](CO)c3ccccc3)C[C@H]1[C@H]1O[C@H]12 (some centres undefined)	P94_40	Potency	inactive
Cc1onc(-c2c(F)cccc2Cl)c1C(=O)NC1C(=O)N2C1SC(C)(C)C2C(=O)O (centres undefined)	P94_40	Potency	inactive
CCCCC(=O)OCC(=O)[C@]1(O)Cc2c(O)c3c(c(O)c2[C@H](OC2CC(NC(=O)C(F)(F)F)C(O)C(C)O2)C1)C(=O)c1c(OC)cccc1C3=O (some centres undefined)	P94_40	Potency	2000 nM (active)
Cc1ccc(S(=O)(=O)NC(=O)NC(C)Cc2ccccc2)cc1 (centres undefined)	P94_40	Potency	inactive
CC1CN(c2c(F)c(N)c3c(=O)c(C(=O)O)cn(C4CC4)c3c2F)CC(C)N1 (centres undefined)	P94_40	Potency	inactive
C/C(=C(/CCO)SS/C(CCO)=C(\C)N(C=O)Cc1cnc(C)nc1N)N(C=O)Cc1cnc(C)nc1N	P94_40	Potency	inactive

Then this compound:
Prompt: I am curious: what Potency value has been reported for CC1C(=O)C(=O)C=CN1C (centres undefined) ?
Completion: inactive

====

Test: qHTS Assay for Identification of Small Molecule Agonists for Hypoxia Response Element Signaling Pathway (AID 914); note: potency is the fitted concentration of half-maximal effect
Details: ME-180 (cervical carcinoma) HRE-bla reporter, beta-lactamase ratio, CoCl2, 17 h
Results filed as inconclusive are left out. Calls of active or inactive are those of the source. Calls come from the whole dose curve; as a rule, active = well fitted activation curve with a large enough effect in the signal ratio, with a control signal flat (not every such curve was filed as active); inconclusive = small, poorly fitted or top-dose-only effect, or effect the other way, or a change in a side signal; inactive = flat fitted curve, though single readings scatter; the % refers to the signal ratio.
Exercise: for every item that follows, state its recorded Potency.

Prompt: I am curious: what Potency value has been reported for C=CCn1c(=N)c(C(=O)OCC)cc2c(=O)n3cccc(C)c3nc21 ?
Completion: 10 µM (active)

Prompt: Same read-out for CCc1cc(=O)oc2c(CN3CCCC3)c(O)c(Cl)cc12 ?
Completion: 7.94 µM (active)

Prompt: Same read-out for CCC(=O)Nc1c(C#N)c2nc3ccccc3nc2n1C1CCCCC1 ?
Completion: 10 µM (active)

Prompt: Same read-out for CCN(CC)Cc1c(O)ccc2c(C)c(CC(=O)OC)c(=O)oc12 ?
Completion: 10 µM (active)

====

Experiment: NFAT Signaling Pathway (AID 444);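 note: carbachol stimulus at about its EC50 of 1 µM final; % is set by controls: 0 for no effect and ±100 for the full control effect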
Details: Jurkat NFAT-bla M1, carbachol, beta-lactamase ratio, 5 h; at 17.2 µM (top of the series) unless noted
Records with an inconclusive call do not appear. Activity calls are given as the source filed them. The call rests on the fitted dose curve; in most records, active means well fitted curve in either direction with a large enough effect (not every such curve was filed as active); inconclusive means small, poorly fitted or top-dose-only effect, or another doubt; inactive means flat fitted curve, though single readings scatter.
Parameter measured: activity change, negative = inhibition

Prompt: I am curious: what activity change, negative = inhibition value has been reported for CCOc1cccc(NC(=O)C2CC(=O)NC(=Nc3ccccc3)S2)c1 (centres undefined) ?
Completion: 6.96% (inactive)

Prompt: Same read-out for CN(C)CCCn1c(NC(=O)C2CCCCC2)nc2ccccc21 ?
Completion: -10.7% (inactive)

Prompt: Same read-out for CCNc1nc(Oc2ccccc2)nc(OC(C)C(=O)OCC)n1 (centres undefined) ?
Completion: 6.54% (inactive)

Prompt: Same read-out for Cc1cc(C)n(CC2CC(=O)N(c3ccc(C)c(Cl)c3)C2=O)n1 (centres undefined) ?
Completion: 13.9% (inactive)

Prompt: Same read-out for N/C(=N\S(=O)(=O)c1ccc(Cl)s1)c1ccccc1 ?
Completion: -13.4% (inactive)

Prompt: Same read-out for CCOC(=O)CNS(=O)(=O)c1cc(-c2n[nH]c(=O)c3ccccc23)ccc1C ?
Completion: 5.83% (inactive)

Prompt: Same read-out for CCCCC1(C(=O)OCC)CC(CN2CCOCC2)OC1=O (centres undefined) ?
Completion: -18.1% (inactive)

Prompt: Same read-out for COC(=O)c1ccc(OC(=O)c2ccc(OC)c(OC)c2)c(OC)c1 ?
Completion: -10.5% (inactive)

Prompt: Same read-out for O=C(O)CC(C(=O)OCC1CCCO1)N1CCOCC1 (centres undefined) ?
Completion: -2.84% (inactive)

Prompt: Same read-out for CCCC(=O)N1CCc2[nH]c3ccccc3c2C1 ?
Completion: 13.8% (inactive)

Prompt: Same read-out for Cc1cc(C)n(C(=O)CNC(=O)c2cccs2)n1 ?
Completion: 3.15% (inactive)

Prompt: Same read-out for CCCCOc1ccc(C2CC(=O)N(C)C2=O)cc1 (centres undefined) ?
Completion: -3.42% (inactive)

Prompt: Same read-out for CCOC(=O)CSC1=C(C#N)C(c2ccc(C)cc2)C(C(=O)OC)C(=O)N1 (centres undefined) ?
Completion: 6.97% (inactive)

Prompt: Same read-out for CCCn1nc(Oc2nc(SC)nc(N(C)C)n2)ccc1=O ?
Completion: -5.95% (inactive)

Prompt: Same read-out for COc1ccccc1NC(=O)Nc1nnc(C(C)C)s1 ?
Completion: 20.9% (inactive)

Prompt: Same read-out for CCSc1nnc(NC(=O)C(C)(C(F)(F)F)C(F)(F)F)s1 ?
Completion: -18.1% (inactive)

Prompt: Same read-out for COc1ccc(-c2c3c([nH]c(=S)c2C#N)CCC3)cc1 ?
Completion: -5.23% (inactive)

Prompt: Same read-out for COC(=O)C1=C(C)OC(N)=C(C#N)C1c1ccc(OC)c(OC)c1OC (centres undefined) ?
Completion: -15.6% (inactive)

Prompt: Same read-out for COC(=O)C(NC(=O)c1ccco1)(Nc1ccc(Br)cn1)C(F)(F)F (centres undefined) ?
Completion: -10.8% (inactive)

Prompt: Same read-out for Cc1nc(NCCCO)c(C#N)c2c1COC(C)(C)C2 ?
Completion: 1.02% (inactive)

Prompt: Same read-out for Cc1ccc(C(=O)C2=C(O)C(=O)N(c3ncccn3)C2c2cccc(Cl)c2)o1 (centres undefined) ?
Completion: 24.9% (inactive)

Prompt: Same read-out for CCCCSc1nnc(-c2ccc(NC(C)=O)cc2)n1C ?
Completion: 12.4% (inactive)

Prompt: Same read-out for Cc1cc(C)n(CC(=O)n2c3c(c4ccccc42)CCCC3)n1 ?
Completion: 0.496% (inactive)

Prompt: Same read-out for CCOC(=O)CCCCC(=O)NC(CO)C(=O)NC (centres undefined) ?
Completion: 6.3% (inactive)
